Data provenance is the Immune Epitope Database (IEDB).

Known IC50 of a selection of sequences
ASSAYED TARGET: HLA-A*02:01
ASSAY PROCEDURE: IEDB peptide-MHC binding, cellular MHC/competitive/fluorescence; bounds were set here for any values at or beyond the usual limits of such assays
CONDITION: source organism: Vaccinia virus WR
OBSERVED PROPERTY: IC50 (µM)

ELPVKTDIV = 11.1
NVDVGCLLT = 47.3
TLPNKSDVLI = 5.32
IVVYNPSTM = 56.2
RTIDAINKCV = 25
TIVSRSSRGV = 11.3
RLSLNRTIVT = 8.65
TIIERSKKFI = 45.1
CAVIPFDDI = 17
FINKLNGAM = 57.8
